system: HEK293 cells; test: Preliminary screening as DNA vectors, GFP transfection of HEK293 cells; assay type: cell-based; settings: amino lipid/DOPE liposome with 75 ng plasmid DNA (psin-EGFP-IRES-Puro); number of GFP-expressing cells divided by total nuclei (Hoechst)
The entries below are paired with their reported Absolute DNA transfection efficiency in HEK293 cells.
Only the number, expressed in %, is required.

In: Requested read-out: Absolute DNA transfection efficiency in HEK293 cells. Entry: `CCCCCCCCCCCCCCCSc1nc(NCCCCCCCC)nc(NCCN2CCN(C)CC2)n1`
Out: 17.3

In: Requested read-out: Absolute DNA transfection efficiency in HEK293 cells. Entry: `CCCCCCCCCCCCCCCCNc1nc(NCCN(CC)CC)nc(SCCCCCC)n1`
Out: 2.6

In: Requested read-out: Absolute DNA transfection efficiency in HEK293 cells. Entry: `CCCCCCCCCCCCCCCCNc1nc(NCCCN2CCOCC2)nc(SCCCCCCCCCCCCCC)n1`
Out: 0.1

In: Requested read-out: Absolute DNA transfection efficiency in HEK293 cells. Entry: CCCCCCCCCSc1nc(NCCCCCCC)nc(NCCN(C)C)n1 [S9N7 D1]
Out: 36.0

In: Requested read-out: Absolute DNA transfection efficiency in HEK293 cells. Entry: `CCCCCCCCCCCCSc1nc(NCCCCCCC)nc(NCCCN2CCN(C)CC2)n1`
Out: 0.3

***
In: Requested read-out: Absolute DNA transfection efficiency in HEK293 cells. Entry: `CCCCCCCCCCCSc1nc(NCCCCCCCCC)nc(NCCN(CC)CC)n1`
Out: 2.0

In: Requested read-out: Absolute DNA transfection efficiency in HEK293 cells. Entry: `CCCCCCCCCCCCCCCCSc1nc(NCCCN2CCN(C)CC2)nc(SCCCCCCC)n1`
Out: 2.3

In: Requested read-out: Absolute DNA transfection efficiency in HEK293 cells. Entry: `CCCCCCCCCCCCCCCCSc1nc(NCCN2CCN(C)CC2)nc(SCCCCCC)n1`
Out: 15.2

In: Requested read-out: Absolute DNA transfection efficiency in HEK293 cells. Entry: `CCCCCCCCCCCCCCCSc1nc(NCCCCCC)nc(NCC2CCN(C)CC2)n1`
Out: 26.5

// data source = patent US20230123334A1
